Origin of values: ChEMBL document CHEMBL1132082

molecular target: Mineralocorticoid receptor (Homo sapiens) (UniProt P08235); experiment: In vitro antagonistic activity against human mineralocorticoid receptor (hMR); type: functional
Sequence (P08235 whole entry): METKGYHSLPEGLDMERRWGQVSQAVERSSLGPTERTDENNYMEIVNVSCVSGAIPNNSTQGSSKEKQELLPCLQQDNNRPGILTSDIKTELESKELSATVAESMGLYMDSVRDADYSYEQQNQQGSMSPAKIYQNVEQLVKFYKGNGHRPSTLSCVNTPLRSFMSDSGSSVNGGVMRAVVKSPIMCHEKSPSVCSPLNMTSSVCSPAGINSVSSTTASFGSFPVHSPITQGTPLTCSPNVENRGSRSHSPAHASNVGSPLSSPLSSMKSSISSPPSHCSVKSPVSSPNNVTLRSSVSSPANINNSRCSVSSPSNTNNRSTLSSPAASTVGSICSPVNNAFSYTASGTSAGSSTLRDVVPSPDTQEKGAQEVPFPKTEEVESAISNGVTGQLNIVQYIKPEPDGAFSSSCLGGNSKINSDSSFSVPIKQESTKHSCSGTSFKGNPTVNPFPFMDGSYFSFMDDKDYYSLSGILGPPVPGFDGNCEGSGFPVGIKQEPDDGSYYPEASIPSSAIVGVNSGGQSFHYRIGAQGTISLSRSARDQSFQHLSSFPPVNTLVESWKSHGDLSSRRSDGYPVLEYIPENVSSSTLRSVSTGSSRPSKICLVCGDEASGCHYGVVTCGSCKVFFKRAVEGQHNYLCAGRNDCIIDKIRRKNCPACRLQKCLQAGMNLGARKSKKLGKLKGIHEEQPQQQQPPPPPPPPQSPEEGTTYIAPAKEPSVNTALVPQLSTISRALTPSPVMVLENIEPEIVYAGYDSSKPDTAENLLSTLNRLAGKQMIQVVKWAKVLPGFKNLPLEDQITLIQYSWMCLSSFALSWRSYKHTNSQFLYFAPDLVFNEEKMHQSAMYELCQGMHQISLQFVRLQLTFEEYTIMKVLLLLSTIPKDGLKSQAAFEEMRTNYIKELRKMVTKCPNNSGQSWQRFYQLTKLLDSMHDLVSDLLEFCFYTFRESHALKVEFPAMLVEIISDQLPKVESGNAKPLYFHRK
ASSAY_READOUT: Efficacy (%)

COMPOUND	ASSAY_READOUT	UNIT_ABBREVIATION	QUALIFYING_SIGN	MEASURED_NUMBER
CC1CCNc2cc3oc(=O)cc(C(F)(F)F)c3cc21 (stereo not given)	Efficacy	%	<	20
CC1(C)CCc2cc3c(C(F)(F)F)cc(=O)oc3cc2N1	Efficacy	%	=	50
CCC1Nc2cc3oc(=O)cc(C(F)(F)F)c3cc2CC1C (stereo not given)	Efficacy	%	<	20
CC[C@@H]1c2cc3c(C(F)(F)F)cc(=O)oc3cc2NC[C@H]1C (relative stereo)	Efficacy	%	=	60
CCCC1CCNc2cc3oc(=O)cc(C(F)(F)F)c3cc21 (stereo not given)	Efficacy	%	<	20
O=c1cc(C(F)(F)F)c2cc3c(cc2o1)NCCC3C(F)(F)F (stereo not given)	Efficacy	%	<	20
CC1=CC(C)(C)Nc2cc3oc(=O)cc(C(F)(F)F)c3cc21	Efficacy	%	<	20
CC[C@H]1c2cc3c(C(F)(F)F)cc(=O)oc3cc2NC[C@H]1C (relative stereo)	Efficacy	%	=	39
CC[C@@H]1CNc2cc3oc(=O)cc(C(F)(F)F)c3cc2[C@H]1CC (stereo in doubt)	Efficacy	%	=	50
CCC1CCNc2cc3oc(=O)cc(C(F)(F)F)c3cc21 (stereo not given)	Efficacy	%	<	20
